# Tested on: AML-OCI2 and AML-OCI3
# protocol-notes: Volumetric cell counting of AML cell lines
# Type: cell-based, human
# particulars: 72 h, serum-free conditions
Counter-ions that a name gives are not always drawn.
property-measured: number of AML cells

CN(C)CCCN1c2ccccc2Sc2ccc(Cl)cc21 [chlorpromazine, Chlorpromazine hydrochloride]	reduced
CSc1ccc2c(c1)N(CCC1CCCCN1C)c1ccccc1S2 (racemic)	reduced
